Target: DHFR-TS (Trypanosoma brucei brucei, UniProt Q27783)
Sequence (Q27783 whole entry): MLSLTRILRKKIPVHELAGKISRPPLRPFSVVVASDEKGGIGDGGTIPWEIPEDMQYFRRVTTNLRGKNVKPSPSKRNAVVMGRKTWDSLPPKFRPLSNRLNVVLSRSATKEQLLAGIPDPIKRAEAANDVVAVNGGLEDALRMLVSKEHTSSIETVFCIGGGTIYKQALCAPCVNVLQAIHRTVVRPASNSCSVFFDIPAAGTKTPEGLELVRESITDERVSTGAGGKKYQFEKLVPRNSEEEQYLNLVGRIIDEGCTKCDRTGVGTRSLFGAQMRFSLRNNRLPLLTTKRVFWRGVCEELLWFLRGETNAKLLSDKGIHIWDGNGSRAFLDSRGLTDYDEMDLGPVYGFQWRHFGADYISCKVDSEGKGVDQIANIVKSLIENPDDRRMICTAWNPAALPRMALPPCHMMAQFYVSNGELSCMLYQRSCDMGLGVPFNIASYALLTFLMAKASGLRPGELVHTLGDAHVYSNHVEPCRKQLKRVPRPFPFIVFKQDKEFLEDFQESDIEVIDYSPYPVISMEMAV
Assay: Individual bead pull down with competing free ligand
Details: competing free ligand 100 μM; bead = immobilized compound of the row; T. brucei lysate; read-out: % Inhibition of protein binding to bead, DHFR-TS, T. brucei
observable: inhibition at 100 µM

INSERT INTO measurements (compound, meas_value) VALUES
  ('NCCOCCOc1cccc(Cc2cnc(N)nc2N)c1', '79%'),
  ('CN(Cc1cnc2nc(N)nc(N)c2n1)c1ccc(C(=O)N[C@@H](CCC(=O)O)C(=O)O)cc1 [MTX, methotrexate]', '95%'),
  ('NCCCCCOc1ccc(Cc2cnc(N)nc2N)cc1', '84%'),
  ('Nc1nc2cccc(-c3ccccc3)c2n1Cc1ccc(Cl)c(Cl)c1', '< 50%'),
  ('Nc1nc(=O)c2nc(CNc3ccc(C(=O)N[C@@H](CCC(=O)O)C(=O)O)cc3)cnc2[nH]1', '77%'),
  ('NCCCCCOc1cccc(Cc2cnc(N)nc2N)c1', '87%'),
  ('NCCOCCOc1ccc(Cc2cnc(N)nc2N)cc1', '75%');
